- test system: recombinant human LTA4 hydrolase (rhLTA4H) (Homo sapiens)
- Sequence (P09960 1-611): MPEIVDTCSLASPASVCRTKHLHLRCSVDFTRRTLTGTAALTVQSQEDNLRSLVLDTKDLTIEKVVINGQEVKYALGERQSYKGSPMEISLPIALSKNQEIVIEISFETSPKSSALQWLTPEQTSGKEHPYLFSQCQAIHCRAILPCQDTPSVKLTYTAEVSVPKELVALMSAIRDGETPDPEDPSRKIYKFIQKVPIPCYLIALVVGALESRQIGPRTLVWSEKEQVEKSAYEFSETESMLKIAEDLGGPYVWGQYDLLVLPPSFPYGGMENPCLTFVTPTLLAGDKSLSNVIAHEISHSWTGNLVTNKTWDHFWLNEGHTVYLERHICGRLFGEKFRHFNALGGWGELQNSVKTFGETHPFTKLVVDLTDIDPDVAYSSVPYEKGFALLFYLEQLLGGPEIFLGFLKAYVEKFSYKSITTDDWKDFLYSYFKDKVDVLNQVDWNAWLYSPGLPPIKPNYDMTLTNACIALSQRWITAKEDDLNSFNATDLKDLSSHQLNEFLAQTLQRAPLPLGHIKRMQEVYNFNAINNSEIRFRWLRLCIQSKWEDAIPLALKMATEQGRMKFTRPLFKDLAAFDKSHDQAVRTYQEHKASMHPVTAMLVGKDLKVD
- measurement protocol: Recombinant Human LTA4 Hydrolase Assay for LTA4 Hydrolase Inhibitor Activity
- condition notes: average of results obtained; LTB4 quantified by enzyme-linked immunoassay
measurement name: Ki (nM)
Answers are plain numbers, in nM.

>>> print(df.to_string())
                                   compound  recorded_value
0  CC(C)(O)C(=O)N1C[C@@H]2C[C@H]1CN2CCc1cccc(Oc2nc3ccccc3s2)c1             163
1  Cc1ccc2nc(Oc3ccc(CCN[C@@H]4C[C@H]5CC[C@@H](C4)N5S(C)(=O)=O)cc3)sc2c1             630
2  CS(=O)(=O)N1[C@@H]2CC[C@H]1C[C@@H](NCCOc1ccc(Oc3nc4cccc(Cl)c4s3)cc1)C2            3130
3  CS(=O)(=O)N1C[C@@H]2C[C@H]1CN2CCOc1ccc(Oc2nc3cccc(Cl)c3s2)cc1            1590

Quick batch: Ki for everything below.
1. NC(=O)N1[C@@H]2CC[C@H]1C[C@H](NCCc1ccc(Oc3nc4c(F)cccc4s3)cc1)C2
2. CS(=O)(=O)N[C@H]1C[C@H]2CC[C@@H](C1)N2CCc1ccc(Oc2nc3ccc(F)cc3s2)cc1

Result:
248
17

Value sought for every listed compound: Ki.
1. NC(=O)N1CCC2CN(Cc3ccc(Oc4nc5ccccc5s4)cc3)CC2C1 (stereo not shown)
2. CC(=O)N[C@H]1C[C@H]2CC[C@@H](C1)N2CCOc1ccc(Cc2nc3ccccc3s2)cc1
3. CS(=O)(=O)N1CC2CCC(C1)N2CCc1ccc(Oc2nc3c(Cl)cccc3s2)cc1
4. CC(=O)N1C[C@@H]2C[C@H]1CN2CCOc1ccc(Oc2nc3ccccc3s2)cc1
5. NC(=O)N[C@H]1C[C@H]2CC[C@@H](C1)N2Cc1ccc(Cc2nc3ccccc3s2)cc1
6. CS(=O)(=O)N1CC2CN(Cc3ccc(Cc4nc5ccccc5s4)cc3)CC2C1 (stereo not shown)
7. CC(=O)N1CC2CN(CCc3ccc(Oc4nc5ccc(C)cc5s4)cc3)CC2C1 (stereo not shown)

Result:
1: 33; 2: 75; 3: 2040; 4: 3; 5: 94; 6: 193; 7: 229

Could you tell me Ki for each of these compounds? They are listed below.
1. CS(=O)(=O)N1C[C@H]2C[C@@H]1CN2Cc1ccc(Oc2nc3cc(Cl)ccc3s2)cc1
2. CS(=O)(=O)N[C@@H]1C[C@H]2CC[C@@H](C1)N2CCOc1ccc(Oc2nc3ccc(F)cc3s2)cc1
3. CS(=O)(=O)N[C@@H]1C[C@H]2CC[C@@H](C1)N2Cc1ccc(Oc2nc3c(F)cccc3s2)cc1

Result:
1470
29
4
